# TEST TARGET: Palmitoyltransferase ZDHHC20 (Homo sapiens, UniProt Q5W0Z9)
# Sequence (Q5W0Z9 whole entry): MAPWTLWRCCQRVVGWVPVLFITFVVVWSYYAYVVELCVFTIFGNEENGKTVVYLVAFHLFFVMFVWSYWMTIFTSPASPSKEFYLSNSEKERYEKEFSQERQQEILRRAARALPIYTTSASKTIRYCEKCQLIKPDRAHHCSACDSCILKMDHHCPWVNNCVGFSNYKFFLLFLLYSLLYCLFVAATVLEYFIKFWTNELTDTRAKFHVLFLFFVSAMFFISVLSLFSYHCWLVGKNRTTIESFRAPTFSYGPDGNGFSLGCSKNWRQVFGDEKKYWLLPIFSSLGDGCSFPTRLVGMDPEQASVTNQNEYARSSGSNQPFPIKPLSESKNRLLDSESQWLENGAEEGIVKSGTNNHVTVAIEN
# ASSAY NOTES: Inhibition of human myc-His6-tagged zDHHC20 expressed in HEK293T cells using 5-FAM-GTQGCMGLPCVVM-COOH as substrate preincubated for 1 hr followed by substrate addition and measured at 1 min interval for 2 hrs in presence of palmitoyl-CoA by fluorescence polarization assay
Each record here notes measured IC50.
A complete answer gives the number followed by the unit.

Quick note, IC50 for "C=CC(=O)NCCCCCCCCCCCCCC" landed at 21.4 µM

GET /value?item= "CCCCCCCCCCCCCCNC(=O)/C=C\C(=O)OCC#N" &field=IC50 returns 2.87 µM

So for "CCCCCCCCCCCCCCNC(=O)/C=C\C(=O)OCc1cn(CCCNC(=O)CCNC(=O)[C@H](O)C(C)(C)CO)nn1" , the logged IC50 turned out to be 9.73 µM

molecule "C#CCOC(=O)/C=C\C(=O)NCCCCCCCCCCCCCC" , IC50 observed: 3.43 µM

***
Input "C=CC(=O)N(CC#N)CCOCCCCCCCCCCC" . Output IC50: 1.97 µM

* * *

# TEST TARGET: Palmitoyltransferase ZDHHC2 (Homo sapiens, UniProt Q9UIJ5)
# Sequence (Q9UIJ5 whole entry): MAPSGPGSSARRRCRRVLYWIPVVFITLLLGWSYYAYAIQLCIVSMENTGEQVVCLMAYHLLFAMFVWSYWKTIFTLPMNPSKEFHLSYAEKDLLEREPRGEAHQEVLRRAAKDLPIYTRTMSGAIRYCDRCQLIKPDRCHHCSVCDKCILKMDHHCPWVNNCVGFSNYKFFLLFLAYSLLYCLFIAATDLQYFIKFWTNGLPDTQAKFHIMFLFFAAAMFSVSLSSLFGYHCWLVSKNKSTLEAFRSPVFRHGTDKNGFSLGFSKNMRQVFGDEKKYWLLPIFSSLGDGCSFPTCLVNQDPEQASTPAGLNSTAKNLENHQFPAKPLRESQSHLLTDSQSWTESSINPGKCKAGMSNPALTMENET
# ASSAY NOTES: Inhibition of human myc-His6-tagged zDHHC2 expressed in HEK293T cells using 5-FAM-GTQGCMGLPCVVM-COOH as substrate preincubated for 30 mins followed by substrate addition and measured at 1 min interval for 2 hrs in presence of palmitoyl-CoA by fluorescence polarization assay
QUANTITY MEASURED: IC50 (nM)
Numeric only. Scale: nM

Take a look at these entries with their results.
// IC50 value for "CCCCCCCCCCCCCCNC(=O)/C=C\C(=O)OCC#N" : 2660

Sample CCCCCCCCCCCCCCC(Br)C(=O)O (stereo not given) ; IC50 observed: 2020

IC50 measured on "CCCCCCCCCCCCCCNC(=O)/C=C\C(=O)Oc1ccccc1" = 2020

New cases:
Briefly, IC50 measured for "C=CC(=O)NCCCCCCCCCCCCCC" : 59900

Sample "C=CC(=O)N(CC#N)CCCCCCCCCCCCCC" ; IC50 observed: 590

* * *

# ASSAY NOTES: Lipophilicity, log P of compound
# Format: physicochemical
# COND: octanol/water
QUANTITY MEASURED: logP
Keep it simple and answer with nothing but the number.

The recorded logP for "C=CC(=O)N(CC#N)CCOCCCCCCCCCCC" is 4.1

Please fill in: logP reported for "C=CC(=O)N(CC#N)CCCCCCCCCCCCCC" = 5.48

In plain terms, "CCCCCCCCCCCCCCNC(=O)/C=C\C(=O)OCc1cn(CCCNC(=O)CCNC(=O)[C@H](O)C(C)(C)CO)nn1" has a documented logP of 3.33

Proceeding to the next molecule to report its logP.
get_value(item= "CCCCCCCCCCCCCCNC(=O)/C=C\C(=O)OCc1cn(CCOCCOCCOCCO)nn1" , readout=logP) returns 4.55

* * *

# TEST TARGET: Palmitoyltransferase ZDHHC20 (Homo sapiens, UniProt Q5W0Z9)
# ASSAY NOTES: Inhibition of human myc-His6-tagged zDHHC20 expressed in HEK293T cells using 5-FAM-GTQGCMGLPCVVM-COOH as substrate preincubated for 1 hr followed by substrate addition and measured at 1 min interval for 2 hrs in presence of palmitoyl-CoA by fluorescence polarization assay
QUANTITY MEASURED: pIC50
A value of pIC50 is the negative decimal logarithm of a concentration given in moles per litre.

# example entries with known answers
The compound CCCCCCCCCCCCCCC(Br)C(=O)O (stereo not drawn) on Palmitoyltransferase ZDHHC20 (Homo sapiens, UniProt Q5W0Z9): pIC50 was 5.26

I looked up "CCCCCCCCCCCCCCN(CC#N)C(=O)/C=C\C(=O)O" and its pIC50 for Palmitoyltransferase ZDHHC20 (Homo sapiens, UniProt Q5W0Z9) was 5.46

Continuing:
Hey, Palmitoyltransferase ZDHHC20 (Homo sapiens, UniProt Q5W0Z9) data for "C=CC(=O)N(CC#N)CCCCCCCCCCCCCC" : pIC50 came out at 5.87
